tested target: 3-beta-hydroxysteroid-Delta(8),Delta(7)-isomerase (Homo sapiens, UniProt Q15125)
Sequence (Q15125 whole entry): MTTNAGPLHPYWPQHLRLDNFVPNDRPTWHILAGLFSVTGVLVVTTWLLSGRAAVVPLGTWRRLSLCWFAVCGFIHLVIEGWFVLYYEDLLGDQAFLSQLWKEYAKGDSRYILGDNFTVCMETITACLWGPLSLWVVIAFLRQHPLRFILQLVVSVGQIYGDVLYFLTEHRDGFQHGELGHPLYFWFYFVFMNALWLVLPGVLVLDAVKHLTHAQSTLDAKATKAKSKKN
protocol: Determination of Binding Affinity to EBP-7-Dehydrocholesterol Reductase
Method: Compounds were prepared in a 96-well U bottom plate using an Echo550 machine and 10 mM compound DMSO stock solution, followed by an 8-dose 5-fold serial dilutions protocol with final testing compound concentration ranging from 0.06 to 5000 nM, with DMSO back fill to 100 nL/well and n=2. […] The UniFilter-96 GF/B plates were pre-treated by adding 50 μl/well of 0.3% (v/v) PEI to UniFilter-96 GF/B plates. […] A MicroBeta2 microplate counter was then used to read the plate and analyze the data. […]
One threshold, 10 nM, splits the recorded Ki values: lower ones are YES, equal or higher ones are NO.

Ask: Strictly below 10 nM in Ki? CC(C)(Cc1ccc(C(F)(F)F)cc1)CN1CCC2(C1)CS(=O)(=O)C2
Reply: YES

Ask: Lab note: confirm whether the reported Ki for this molecule is below 10 nM, equality not counting. molecule: C[C@@H](Cc1ccc([C@@H]2CCCCO2)c(Cl)c1)CN1CCC2(C1)CS(=O)(=O)C2 [US20240400579, Example 124B]
Reply: NO

Ask: hey, is Ki for O=S1(=O)CC2(CCN(CCCc3ccc(C(F)(F)F)cc3)C2)C1 lower than 10 nM or not?
Reply: YES

Ask: Ki strictly < 10 nM for this molecule? C[C@H](Cc1ccc(C2CCCCO2)c(Cl)c1)CN1CCC2(C1)CS(=O)(=O)C2 (stereo not given in full) [US20240400579, Example 124A]
Reply: NO

Ask: Regarding O=S1(=O)CC2(CCN(CCOc3cnc(C(F)(F)F)c(Cl)c3)CC2)C1 , kindly confirm whether its Ki is beneath 10 nM.
Reply: NO
